What MIC Staphylococcus aureus (ATCC 29213) was measured for each of the following?
# System: Staphylococcus sp.
# measurement-notes: in vitro antibacterial evaluation, MIC by broth dilution
# Type: cell-based
# condition-context: broth dilution, 18 hours at 35° C.
One number for each entry, in µg/mL.

{"compound": "COC1CCC2(C)C(CCC3C2CCC2(C)C(C(C)CCC4OCC5OC(OC6C(CO)OC(Oc7ccc(CC8NC(=O)C(C(C)c9ccccc9)NC(=O)CNC(=O)C(CO)NC(=O)C(C(O)C9CNC(=N)N9C9OC(CO)C(O)C(O)C9O)NC(=O)C(C(O)C9CNC(=N)N9)NC8=O)cc7)C(O)C6O)C(O)C(O)C5O4)CCC32)C1 (stereo not shown)", "system-tested": "Staphylococcus sp.", "MIC Staphylococcus aureus (ATCC 29213) [µg/mL]": 32}
{"compound": "CC=C(C)C(=O)OC1C(CO)OC(OC2C(CO)OC(Oc3ccc(CC4NC(=O)C(C(C)c5ccccc5)NC(=O)CNC(=O)C(CO)NC(=O)C(C(O)C5CNC(=N)N5C5OC(CO)C(O)C(O)C5O)NC(=O)C(C(O)C5CNC(=N)N5)NC4=O)cc3)C(O)C2O)C(O)C1O (stereo not shown) [Example 278b]", "system-tested": "Staphylococcus sp.", "MIC Staphylococcus aureus (ATCC 29213) [µg/mL]": 8}
{"compound": "CC(C)CC(=O)OCC1OC(OC2C(CO)OC(Oc3ccc(CC4NC(=O)C(Cc5ccccc5)NC(=O)CNC(=O)C(CO)NC(=O)C(C(O)C5CNC(=N)N5C5OC(CO)C(O)C(O)C5O)NC(=O)C(C(O)C5CNC(=N)N5)NC4=O)cc3)C(O)C2O)C(O)C(O)C1O (stereo not shown) [Example 283c]", "system-tested": "Staphylococcus sp.", "MIC Staphylococcus aureus (ATCC 29213) [µg/mL]": 32}
{"compound": "COc1ccc2cc(COC3C(CO)OC(OC4C(CO)OC(Oc5ccc(CC6NC(=O)C(C(C)c7ccccc7)NC(=O)CNC(=O)C(CO)NC(=O)C(CC7CNC(=N)N7C7OC(CO)C(O)C(O)C7O)NC(=O)C(CC7CNC(=N)N7)NC6=O)cc5)C(O)C4O)C(O)C3O)ccc2c1 (stereo not shown) [Example 245a]", "system-tested": "Staphylococcus sp.", "MIC Staphylococcus aureus (ATCC 29213) [µg/mL]": 2}
{"compound": "COc1ccc(COCC2OC(OC3C(CO)OC(Oc4ccc(CC5NC(=O)C(C(C)c6ccccc6)NC(=O)CNC(=O)C(CO)NC(=O)C(C(O)C6CNC(=N)N6C6OC(CO)C(O)C(O)C6O)NC(=O)C(C(O)C6CNC(=N)N6)NC5=O)cc4)C(O)C3O)C(O)C(O)C2O)cc1 (stereo not shown)", "system-tested": "Staphylococcus sp.", "MIC Staphylococcus aureus (ATCC 29213) [µg/mL]": 4}

CCCC(C)C1OCC2OC(OC3C(CO)OC(Oc4ccc(CC5NC(=O)C(C(C)c6ccccc6)NC(=O)CNC(=O)C(CO)NC(=O)C(C(O)C6CNC(=N)N6C6OC(CO)C(O)C(O)C6O)NC(=O)C(C(O)C6CNC(=N)N6)NC5=O)cc4)C(O)C3O)C(O)C(O)C2O1 (stereo not shown) has a reported MIC Staphylococcus aureus (ATCC 29213) of 1

* * *

# System: Enterococcus sp.
# measurement-notes: in vitro antibacterial evaluation, MIC by broth dilution
# Format: cell-based
# condition-context: broth dilution, 18 hours at 35° C.; strain GC 2242
metric-name: MIC Enterococcus faecalis (GC 2242) (µg/mL)
Answers are plain numbers, in µg/mL.

{"compound": "CC(C)=CCCC(C)=CCN=C1NCC(C(O)C2NC(=O)C(C(O)C3CNC(=N)N3)NC(=O)C(Cc3ccc(OC4OC(CO)C(OC5OC6COC7(OC6C(O)C5O)C5CC6CC(C5)CC7C6)C(O)C4O)cc3)NC(=O)C(C(C)c3ccccc3)NC(=O)CNC(=O)C(CO)NC2=O)N1C1OC(CO)C(O)C(O)C1O (stereo not shown) [Example 82]", "system-tested": "Enterococcus sp.", "result-unit": "µg/mL", "MIC Enterococcus faecalis (GC 2242)": 16}
{"compound": "CC(c1ccccc1)C1NC(=O)CNC(=O)C(CO)NC(=O)C(C(O)C2CNC(=N)N2C2OC(CO)C(O)C(O)C2O)NC(=O)C(C(O)C2CNC(=N)N2)NC(=O)C(Cc2ccc(OC3OC(CO)C(OC4OC5COC(Cc6ccc(F)cc6)OC5C(O)C4O)C(O)C3O)cc2)NC1=O (stereo not shown) [Example 121]", "system-tested": "Enterococcus sp.", "result-unit": "µg/mL", "MIC Enterococcus faecalis (GC 2242)": 2}

Consider the record given below.
CC(c1ccccc1)C1NC(=O)CNC(=O)C(CO)NC(=O)C(C(O)C2CNC(=N)N2C2OC(CO)C(O)C(O)C2O)NC(=O)C(C(O)C2CNC(=N)N2)NC(=O)C(Cc2ccc(OC3OC(CO)C(OC4OC5COC(c6ccccc6)OC5C(O)C4O)C(O)C3O)cc2)NC1=O (stereo not shown) [Example 104] has a reported MIC Enterococcus faecalis (GC 2242) of 2

* * *

# Tested on: Staphylococcus sp.
# measurement-notes: in vitro antibacterial evaluation, MIC by broth dilution
# Type: cell-based
# condition-context: strain GC 6257; broth dilution, 18 hours at 35° C.
metric-name: MIC Coagulase Negative Staphylococcus (GC 6257) (µg/mL)
Give bare numbers, in µg/mL.

Answered examples (4):
{"compound": "CC(c1ccccc1)C1NC(=O)CNC(=O)C(CO)NC(=O)C(C(O)C2CNC(=N)N2C2OC(CO)C(O)C(O)C2O)NC(=O)C(C(O)C2CNC(=N)N2)NC(=O)C(Cc2ccc(OC3OC(CO)C(OC4OC5COC(c6ccc(C(=O)c7cc(I)c(I)c(I)c7)cc6)OC5C(O)C4O)C(O)C3O)cc2)NC1=O (centres unmarked)", "result-unit": "µg/mL", "reading": 32}
{"compound": "CC(c1ccccc1)C1NC(=O)CNC(=O)C(CO)NC(=O)C(C(O)C2CNC(=N)N2C2OC(CO)C(O)C(O)C2O)NC(=O)C(C(O)C2CNC(=N)N2)NC(=O)C(Cc2ccc3oc(-c4ccc(C(C)(C)C)cc4)nc3c2)NC1=O (centres unmarked)", "result-unit": "µg/mL", "reading": 2}
{"compound": "COc1ccc(Oc2cccc(-c3nc4cc(CC5NC(=O)C(C(C)c6ccccc6)NC(=O)CNC(=O)C(CO)NC(=O)C(C(O)C6CNC(=N)N6C6OC(CO)C(O)C(O)C6O)NC(=O)C(C(O)C6CNC(=N)N6)NC5=O)ccc4o3)c2)cc1 (centres unmarked)", "result-unit": "µg/mL", "reading": 2}
{"compound": "CC(=O)Nc1cc(CC2NC(=O)C(C(C)c3ccccc3)NC(=O)CNC(=O)C(CO)NC(=O)C(C(O)C3CNC(=N)N3C3OC(CO)C(O)C(O)C3O)NC(=O)C(C(O)C3CNC(=N)N3)NC2=O)ccc1O (centres unmarked)", "result-unit": "µg/mL", "reading": 32}

# batch size: 3; output MIC Coagulase Negative Staphylococcus (GC 6257) per entry
1. CC(c1ccccc1)C1NC(=O)CNC(=O)C(CO)NC(=O)C(C(O)C2CNC(=N)N2C2OC(CO)C(O)C(O)C2O)NC(=O)C(C(O)C2CNC(=N)N2)NC(=O)C(Cc2ccc(OC3OC(CO)C(OC4OC5COC(c6ccc(Oc7ccc(C(C)(C)C)cc7)cc6)OC5C(O)C4O)C(O)C3O)cc2)NC1=O (centres unmarked)
2. CC(c1ccccc1)C1NC(=O)CNC(=O)C(CO)NC(=O)C(C(O)C2CNC(=N)N2C2OC(CO)C(O)C(O)C2O)NC(=O)C(C(O)C2CNC(=N)N2)NC(=O)C(Cc2ccc(OC3OC(CO)C(OC4OC5COC6(CCCCCCCCCCC6)OC5C(O)C4O)C(O)C3O)cc2)NC1=O (centres unmarked)
3. CC(c1ccccc1)C1NC(=O)CNC(=O)C(CO)NC(=O)C(C(O)C2CNC(=N)N2C2OC(CO)C(O)C(O)C2O)NC(=O)C(C(O)C2CNC(=N)N2)NC(=O)C(Cc2ccc3oc(-c4ccc(OCc5ccccc5)cc4)nc3c2)NC1=O (centres unmarked)

Response line:
1. 2
2. 2
3. 4

* * *

# Test system: Staphylococcus sp.
# measurement-notes: in vitro antibacterial evaluation, MIC by broth dilution
# Type: cell-based
# condition-context: broth dilution, 18 hours at 35° C.; strain ID-3941
# From the text: Methods for in vitro Antibacterial Evaluation (Table 1) […]
metric-name: MIC Coagulase Negative Staphylococcus (ID-3941) (µg/mL)
Numbers only, in µg/mL.

Answered examples (2):
{"compound": "CC(c1ccccc1)C1NC(=O)CNC(=O)C(CO)NC(=O)C(C(O)C2CNC(=N)N2C2OC(CO)C(O)C(O)C2O)NC(=O)C(C(O)C2CNC(=N)N2)NC(=O)C(Cc2ccc(OC3OC(COC(=O)C(c4ccccc4)c4ccccc4)C(OC4OC(CO)C(O)C(O)C4O)C(O)C3O)cc2)NC1=O (stereo not drawn) [Example 96b]", "result-unit": "µg/mL", "reading": 0.5}
{"compound": "CCCCCCCC1OCC2OC(OC3C(CO)OC(Oc4ccc(CC5NC(=O)C(C(C)c6ccccc6)NC(=O)CNC(=O)C(CO)NC(=O)C(C(O)C6CNC(=N)N6C6OC(CO)C(O)C(O)C6O)NC(=O)C(C(O)C6CNC(=N)N6)NC5=O)cc4)C(O)C3O)C(O)C(O)C2O1 (stereo not drawn) [Example 109]", "result-unit": "µg/mL", "reading": 1}

CCCC(CCC)C(=O)OCC1OC(OC2C(CO)OC(Oc3ccc(CC4NC(=O)C(C(C)c5ccccc5)NC(=O)CNC(=O)C(CO)NC(=O)C(C(O)C5CNC(=N)N5C5OC(CO)C(O)C(O)C5O)NC(=O)C(C(O)C5CNC(=N)N5)NC4=O)cc3)C(O)C2O)C(O)C(O)C1O (stereo not drawn) [Example 99c] has a reported MIC Coagulase Negative Staphylococcus (ID-3941) of 1
